tested on: Vero E6; test: cell viability relative to DMSO; higher = less toxic; conditions: 72 h; 100 nM
Property: cell viability; scope: individual molecules
Give just the numeric value; % need not be written.

• Cn1c(Nc2ccc(C(F)(F)F)cc2)nc2cc(Oc3ccnc(-c4ncc(C(F)(F)F)[nH]4)c3)ccc21 = 99.8

*Q* Return value of cell viability for input "Cc1nn(C)c2c1C(c1cccc(Cl)c1)=NCCN2" , no commentary.
*A* 98

*Q* Return value of cell viability for input O=C1CN2Cc3c(ccc(Cl)c3Cl)N=C2N1 [anagrelide] , no commentary.
*A* 103

*Q* Return value of cell viability for input Cc1ccc2c(c1)=C(c1ccccc1)C(C1=NN(C(=O)CCC(=O)O)C(c3ccc(Br)cc3)C1)C(=O)N=2 (stereo unspecified) , no commentary.
*A* 100

*Q* Return value of cell viability for input "COc1cc(C=O)ccc1O" , no commentary.
*A* 89.7

*Q* Return value of cell viability for input "Clc1cccc(Cl)c1NC1=NCCN1" , no commentary.
*A* 102

* * *

Property: cell viability; scope: individual molecules
test system: HepG2; assay: cell viability relative to DMSO; higher = less toxic; conditions: 72 h; 1000 nM
Give just the numeric value; % need not be written.

*Q* Return value of cell viability for input "C[C@H]1C[C@H]2[C@@H]3CCC4=CC(=O)C=C[C@]4(C)[C@H]3C(=O)C[C@]2(C)[C@@]1(O)C(=O)CO" , no commentary.
*A* 95.9

*Q* Return value of cell viability for input "Cc1cnc(NC(=O)Nc2cc(Br)c(C)cc2OC[C@@H]2CNCCO2)cn1" , no commentary.
*A* 59.1

*Q* Return value of cell viability for input "O=C(c1ccc(CN2CCOCC2)cc1)N1CCN(C2CC2)CC1" , no commentary.
*A* 107

*Q* Return value of cell viability for input "CC(C)(C)CC(C)(C)c1cc(Cc2cc(C(C)(C)CC(C)(C)C)cc(-n3nc4ccccc4n3)c2O)c(O)c(-n2nc3ccccc3n2)c1" , no commentary.
*A* 98.6

*Q* Return value of cell viability for input "Cn1c(NC[C@@H](N)Cc2ccccc2)nc(-c2ccncc2)c(-c2ccc3ccccc3c2)c1=O" , no commentary.
*A* 104

*Q* Return value of cell viability for input CCCCCCCCCC(=O)O[C@H]1CC[C@H]2[C@@H]3CCC4=CC(=O)CC[C@@H]4[C@H]3CC[C@]12C [Nandrolone decanoate] , no commentary.
*A* 102

*Q* Return value of cell viability for input CC(C)NCC(O)COc1cccc2ccccc12 (stereo not given) , no commentary.
*A* 102

*Q* Return value of cell viability for input "CCCCCCCCCCCCCCCCCCCCCCCCCCCCO" , no commentary.
*A* 116

*Q* Return value of cell viability for input "O=C(O)[C@H]1CC[C@H](c2cc3cccnc3c(-c3cccc(F)c3)n2)CC1" , no commentary.
*A* 92.2

*Q* Return value of cell viability for input "c1ccc(CNc2ncnc3[nH]cnc23)cc1" , no commentary.
*A* 109

*Q* Return value of cell viability for input "O=[N+]([O-])/C=C/c1ccc2c(c1)OCO2" , no commentary.
*A* 95.9

* * *

system: U2OS; assay: cell viability relative to DMSO; higher = less toxic; conditions: 72 h; 1 nM
PARAMETER: cell viability (%)
Give just the numeric value; % need not be written.

*Q* Return value of cell viability for input "CCOC(=O)[C@H]1O[C@@H]1C(=O)N[C@@H](CC(C)C)C(=O)NCCC(C)C" , no commentary.
*A* 99.6

*Q* Return value of cell viability for input "COc1ccc(Cc2nccc3cc(OC)c(OC)cc23)cc1OC" , no commentary.
*A* 101

*Q* Return value of cell viability for input "Nc1nc(=O)c2sc(=O)n([C@@H]3O[C@H](CO)[C@@H](O)[C@H]3O)c2[nH]1" , no commentary.
*A* 97.2

*Q* Return value of cell viability for input "c1ccc2c(CC3=NCCN3)cccc2c1" , no commentary.
*A* 97

*Q* Return value of cell viability for input "c1ccc(CNc2ncnc3[nH]cnc23)cc1" , no commentary.
*A* 106

*Q* Return value of cell viability for input "CCc1c(C(=O)Nc2cc(S(=O)(=O)N(CC)CC)ccc2O)[nH]c(C)c1C(C)=O" , no commentary.
*A* 99.3

*Q* Return value of cell viability for input "N=C(N)NN=C1C=CC(=NNC(N)=S)C=C1" , no commentary.
*A* 95

*Q* Return value of cell viability for input "Cc1[nH]c(=O)c(C#N)cc1-c1ccncc1" , no commentary.
*A* 103

*Q* Return value of cell viability for input "Cc1cc(NC(=O)Nc2ccc(F)c(F)c2)n(-c2ccccc2)n1" , no commentary.
*A* 97.1

*Q* Return value of cell viability for input "C/C(=C\CNc1ncnc2[nH]cnc12)CO" , no commentary.
*A* 96.8

* * *

Property: cell viability; scope: individual compounds
tested on: Calu-3; test: cell viability relative to DMSO; higher = less toxic; settings: 72 h; 100 nM
Give just the numeric value; % need not be written.

Guide cases for cell viability, answers given:
* C1=C2CCCN[C@H]2[C@@H]2C[C@H]1[C@H]1CCCCN1C2 | 90.7
* Cc1cc(-c2nc(-c3ccc(OC(F)(F)F)cc3)no2)nn1Cc1ccnc(N2CCN(C3CC3)CC2)c1 | 92.9
* CC(C)Cn1cnc2c(N)nc3ccccc3c21 | 102
* O=C(CO)[C@@H](O)[C@@H](O)[C@H](O)CO | 99.7
* Cc1nc(C#Cc2ccnc(Cl)c2)c(C)n1-c1ccc(OC(F)(F)F)cc1 | 93
* CC(=O)c1ccc(NS(C)(=O)=O)c(Oc2ccc(F)cc2F)c1 | 103
* CN1CCC2=C(C1)C(c1ccccc1)c1ccccc12 (configuration not stated) | 98.2
* O=C(NCCCN1CCOCC1)c1ccc(Cl)cc1 [eprobemide] | 105
* Oc1cc(Cl)ccc1Oc1ccc(Cl)cc1Cl | 106
* COc1c(C)c(C(=O)c2ccc(N)c(C(=O)O)c2)n2ccccc12 | 96

*Q* Return value of cell viability for input "CNC(=O)COC(=O)NCCC1CCN(c2cccc(C)n2)CC1" , no commentary.
*A* 105

*Q* Return value of cell viability for input "COc1ccccc1S(=O)(=O)Nc1ccc2c(c1)CN(C)C(=O)N2" , no commentary.
*A* 102

* * *

tested on: Calu-3; test: cell viability relative to DMSO; higher = less toxic; conditions: 72 h; 10000 nM
PARAMETER: cell viability (%)
Give just the numeric value; % need not be written.

Guide cases for cell viability, answers given:
- CCN(CC)S(=O)(=O)c1ccc(C(=O)O)cc1: 111
- Clc1cccc(Cl)c1NC1=NCCN1: 88.8
- CC(=O)O[C@@H]1CC[C@@]2(C)[C@@H](CC[C@]3(C)[C@@H]2C(=O)C=C2[C@@H]4[C@@H](C)[C@H](C)CC[C@]4(C)CC[C@]23C)[C@@]1(C)C(=O)O: 96.5
- Cc1cc(C)c(CNC(=O)c2cc(-c3ccc(N4CCN(C)CC4)nc3)cc3c2c(C)cn3C(C)C)c(=O)[nH]1: 104

Turning now to a further compound:
*Q* Return value of cell viability for input COc1ccc2[nH]c(SCc3ncc(C)c(OC)c3C)nc2c1 [omeprazole-sulfide] , no commentary.
*A* 90.6

* * *

tested on: Vero E6; test: relative viability EC50 (midpoint between 100% and the lowest measured viability); higher = less toxic; conditions: 72 h
Property: relative viability EC50; scope: individual compounds

• C[C@]12C=CC(=O)C=C1CC[C@@H]1[C@@H]2[C@@H](O)C[C@@]2(C)[C@H]1CC[C@]2(O)C(=O)COC(=O)CCC(=O)O [prednisolone-hemisuccinate] = > 10 µM
• COc1c(C)c(C(=O)c2ccc(N)c(C(=O)O)c2)n2ccccc12 = > 10 µM
• Cc1cc2c(C(N)=O)cccc2n1-c1nc2c(c(NCc3ccccc3)n1)COCC2 = 0.338 µM

Turning now to a further compound:
*Q* Return value of relative viability EC50 for input O=C(O)C1=C(CSc2nnnn2CS(=O)(=O)O)CS[C@@H]2[C@H](NC(=O)[C@H](O)c3ccccc3)C(=O)N12 [Cefonicid (sodium)] , no commentary.
*A* > 10 µM

* * *

system: Vero E6; assay: cell viability relative to DMSO; higher = less toxic; conditions: 72 h; 1 nM
PARAMETER: cell viability (%)
Give just the numeric value; % need not be written.

* O=C(/C=C/c1cccc(F)c1)NC1CC1 [cinflumide] | 101
* C[C@H](N)Cn1ccc2cc(F)c(Cl)cc21 | 104
* C[C@H](CSC(=O)c1ccccc1)C(=O)N1C[C@@H](Sc2ccccc2)C[C@H]1C(=O)O | 114
* O=C(NCCCN1CCOCC1)c1ccc(Cl)cc1 [eprobemide] | 92.1
* COc1cc(/C=C/C(N)=O)cc(OC)c1OC [cintriamide] | 96.3
* CCN(CC)CCNC(=O)c1ccccc1I | 99

*Q* Return value of cell viability for input "CN1C(=O)N(c2cc(Cl)cc(Cl)c2)C(=O)[C@]12CN(Cc1cc(C(=O)O)cs1)C[C@H]2c1ccc(C#N)cc1" , no commentary.
*A* 98.3

*Q* Return value of cell viability for input "CC[C@H](C)n1cc(C)c2c(C(=O)NCc3c(C)cc(C)[nH]c3=O)cc(-c3ccc(N4CCNCC4)nc3)cc21" , no commentary.
*A* 92.3

*Q* Return value of cell viability for input "C[C@H](N)[C@H](O)c1ccc(O)c(O)c1" , no commentary.
*A* 109

*Q* Return value of cell viability for input "CN(C)CCN1C(=O)c2cccc3cc(NC(N)=O)cc(c23)C1=O" , no commentary.
*A* 108

*Q* Return value of cell viability for input "Cc1cc2c(C(N)=O)cccc2n1-c1nc2c(c(NCc3ccccc3)n1)COCC2" , no commentary.
*A* 98.8

*Q* Return value of cell viability for input "COc1ccc(NS(=O)(=O)c2ccc(/N=N/c3ccc(O)c(C(=O)O)c3)cc2)nn1" , no commentary.
*A* 105
